# Lookup of reported normalized growth keyed by entry
- ASSAY DETAILS: chemical genetic growth profiling, strain panel (AID 1159580);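 note: tested at 20 µM; growth read once vehicle control cultures reached saturation at 30 °C; 1 = growth at the plate median or of vehicle wells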
- PROTOCOL CONDITIONS: S. cerevisiae deletion strains, growth OD, locus YER110C, stronger effect = lower value
Screen size: about 5,500 compounds; about 2,000 (36%) were called active. Not shown: some 18% with an inconclusive outcome. The list shows a part of the results.
Lab note: record the figure alone, no unit after it.

OC/C=C/c1ccc(O)c(O)c1 :: 0.954

Supply recorded normalized growth for `NCc1ccc(S(N)(=O)=O)cc1` here.
0.983

Supply recorded normalized growth for `CC1=C(/C=C/C(C)=C/C=C/C(C)=C/C(=O)O)C(C)(C)CCC1` here.
1.04

Supply recorded normalized growth for `CN=C1CN(O)C(c2ccccc2)=c2cc(Cl)ccc2=N1` here.
0.985

Supply recorded normalized growth for `O=c1cccc2n1C[C@H]1CNCC2C1` here.
0.974

Supply recorded normalized growth for `COP(=S)(OC)Oc1ccc(SC)c(C)c1` here.
0.986

Supply recorded normalized growth for `COc1ccc(-c2cc(C(F)F)nn2-c2ccc(S(N)(=O)=O)cc2)cc1F` here.
1.03

---

- ASSAY DETAILS: chemical genetic growth profiling, strain panel (AID 1159580);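 note: tested at 20 µM; growth read once vehicle control cultures reached saturation at 30 °C; 1 = growth at the plate median or of vehicle wells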
- PROTOCOL CONDITIONS: S. cerevisiae deletion strains, growth OD, locus YLR039C, strain RIC1
About 2,000 (36%) of roughly 5,500 compounds were called active. Another 18% or so got no clear call; they are omitted. No stated cut-off is given here; in the data, active means normalized growth mostly below about 0.91 (no sharp cut-off); inconclusive means no clear call, values can overlap the other calls; inactive means mostly above about 0.92. Some of the results follow.
Your response should consist of one outcome taken from Y = active, N = inactive

# count of solved cases: 6
COc1ccc(OC)c(S(=O)(=O)NCc2c(F)cccc2Cl)c1 :: N
COc1c(C2COc3cc4c(cc3C2=O)CC(O)C(C)(C)O4)ccc2c1CCC(C)(C)O2 (stereo not drawn) :: N
O=S(=O)(c1cc(Br)c(Br)s1)N1CCCCC1 :: N
CCOP(=S)(OCC)SCCSCC :: N
COS(C)(=O)=O :: N
CCOP(=S)(OCC)SCSCC :: N

Recorded call for `O=C1CN(/N=C\c2ccc([N+](=O)[O-])o2)C(=O)N1` ?
N

Recorded call for `CCOC(=O)c1ccc(N)cc1` ?
N

Recorded call for `CS(=O)(=O)OCCCCOS(C)(=O)=O` ?
N

Recorded call for `CCOC(=O)c1cc(-c2ccc(N)cc2)oc1C` ?
Y

Recorded call for `CCOP(=S)(OCC)Oc1ccc2c(C)c(Cl)c(=O)oc2c1` ?
N

Recorded call for `CCOP(=S)(OCC)SCSP(=S)(OCC)OCC` ?
N

Recorded call for `CCOC(=O)C1=C[C@]2(CC)CCCN3CCc4c(n1c1ccccc41)[C@@H]32` ?
N

---

- ASSAY DETAILS: chemical genetic growth profiling, strain panel (AID 1159580);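 note: tested at 20 µM; growth read once vehicle control cultures reached saturation at 30 °C; 1 = growth at the plate median or of vehicle wells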
- PROTOCOL CONDITIONS: S. cerevisiae deletion strains, growth OD, locus YJL166W, strain qcr8, stronger effect = lower value
About 2,000 (36%) of roughly 5,500 compounds were called active. Inconclusive results (about 18%) are left out. The list shows a part of the results.
// assign condition met if normalized growth falls strictly below 1, else condition not met (ties count as condition not met)

O=C(O)c1cc(O)c(O)c(O)c1 :: condition not met

I wonder whether `CCn1cc(C(=O)O)c(=O)c2cc3c(cc21)OCO3` has normalized growth below 1. Can you tell?
condition met

I wonder whether `CCn1cc(C(=O)O)c(=O)c2ccc(C)nc21` has normalized growth below 1. Can you tell?
condition met

I wonder whether CCOC(=O)CCCCCCCCCCCCC1C=CCC1 (stereo unspecified) has normalized growth below 1. Can you tell?
condition met
